Measured polymerase ribozyme fitness (log ratio) values are reported for all entries that follow.
B1: TPR 5TU (parent)
chain: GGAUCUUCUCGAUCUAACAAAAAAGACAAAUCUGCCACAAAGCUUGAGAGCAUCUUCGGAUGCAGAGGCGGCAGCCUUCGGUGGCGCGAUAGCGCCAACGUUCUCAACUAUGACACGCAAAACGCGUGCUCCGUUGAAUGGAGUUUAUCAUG

Variants of: B1
Experiment: polymerase ribozyme fitness, log enrichment relative to wild type (log ratio); higher = more active; in vitro selection for triplet polymerase activity
This sample holds only a part of the variants without activity.
measured_attribute: polymerase ribozyme fitness (log ratio)

1. U31C C57G C87U U102A G136A = -0.199
2. A16G A39C = -2.62
3. C51U C96A C105A C118U = -2.94
4. G70A G86U = -3.77
5. C116U A119U U135C = -2.59
6. A41C U61A A138U = -3.7
7. C51A C95U C118U U135A = -2.41
8. G83A C99U = -2.05
9. C51U G58A = -1.32
10. G81C G86A = -1.83
11. G58U A137C = -3.03
12. G83A C114U = -2.41
13. A12G C99G = -0.551
14. C5G U55A = -0.729
15. G84A G88U = -3.57
16. U6G A41C A49G C95G = -2.03
17. G34U A142C = -3.85
